Where do these numbers come from? They come from patent US20220315578A1.

- system-tested: BRD9-GFP (Homo sapiens)
- Construct: CHYSEL (2A cis-acting hydrolase element) remnant after GFP; mCherry is split off as a separate protein (C); expressed in transfected cells; host or cells: HEK293A cells (Invitrogen R70507), lentiviral transduction with pLenti6-BRD9-GFP-CHYSEL-mCherry, blasticidin selection
- experiment: BRD9-GFP protein abundance flow cytometry assay in HEK293A cells
- Format: cell-based
- test-settings: HEK293A-BRD9-GFP-CHYSEL-mCherry cells, 24 h at 37° C., 10-point 1:3 dilution; concentration at which 50% maximal degradation was observed
measure: DC50 (nM)

COc1cc(-c2cn(C)c(=O)c3cnccc23)cc(OC)c1CCN1CCC(OC2CCN(C(=O)c3ccc(Cl)c(N4CCC(=O)NC4=O)c3)CC2)CC1 [Compound A38]: 1
Cn1cc(-c2ccc(CN3CCC(OC4CCN(CCn5cccc(CN6CCC(=O)NC6=O)c5=O)CC4)CC3)cc2)c2ccncc2c1=O [Compound E37]: 9
CCCn1cc(-c2cc(F)c(CCN3CCC(OC4CCN(C(=O)c5ccc(Cl)c(N6CCC(=O)NC6=O)c5)CC4)CC3)c(OC)c2)c(C)c(C)c1=O [Compound E52]: 4

I: COc1cc(-c2cn(C)c(=O)c3cnccc23)c(OC)cc1/C=C/C(=O)N1CCC(OC2CCN(C(=O)c3ccc(OC)c(N4CCC(=O)NC4=O)c3)CC2)CC1 [Compound A27]
II: CCCCn1cc(-c2ccc(O[C@H]3CCN(CC4CCN(C(=O)c5ccc(OC)c(N6CCC(=O)NC6=O)c5)CC4)C[C@@H]3F)cc2)c2ccncc2c1=O [Compound E31]
III: CCCn1cc(-c2cc(F)c(CCN3CCC(OC4CCN(C(=O)c5ccc(OC)c(N6CCC(=O)NC6=O)c5)CC4)CC3)c(F)c2)c(C)c(C)c1=O [Compound E12]
IV: COc1ccc(C(=O)N2CCC(OC3CCN(CCc4c(OC)cc(-c5cn(C)c(=O)c6cnccc56)cc4OC)CC3)CC2)cc1N1CCC(=O)NC1=O [Compound A32]
V: CCCCn1cc(-c2cc(OC)c(CN3CCC(OC4CCN(CCn5cccc(CN6CCC(=O)NC6=O)c5=O)CC4)CC3)cc2OC)c2ccncc2c1=O [Compound D1]
Give the ascending ranking of the items by reported DC50. Could you list the labels in the order requested?
II, IV, V, III, I
(II: 1 nM, IV: 6 nM, V: 16 nM, III: 30 nM, I: 49 nM)

I: CCCCn1cc(-c2cc(OC)c(OC3CCN(CC4CCN(C(=O)c5ccc(Cl)c(N6CCC(=O)NC6=O)c5)CC4)CC3)c(OC)c2)c2ccncc2c1=O [Compound B9]
II: COc1cc(-c2cn(C)c(=O)c3cnccc23)cc(OC)c1OC1CCN(CC2CCN(C(=O)c3ccc(Cl)c(N4CCC(=O)NC4=O)c3)CC2)CC1 [Compound A9]
// compare measured DC50 between I and II ; output the lower one Indicate your choice by writing its label.
I

a: CCCCn1cc(-c2ccc(OC3CCN(CC4CCN(C(=O)c5ccc(OC)c(N6CCC(=O)NC6=O)c5)CC4)CC3)cc2)c2ccncc2c1=O [Compound E42]
b: COc1cc(-c2cc(C)c(=O)n(C)c2)cc(OC)c1CN1CCC(OC2CCN(C(=O)COc3ccc(N4CCC(=O)NC4=O)cc3)CC2)CC1 [Compound A8]
// compare measured DC50 between a and b ; output the lower one Indicate your choice by writing its label.
a
(a: 4 nM, b: 70 nM)

###

- system-tested: BRD9-GFP (Homo sapiens)
- Construct: CHYSEL (2A cis-acting hydrolase element) remnant after GFP; mCherry is split off as a separate protein (C); expressed in transfected cells; host or cells: HEK293A cells (Invitrogen R70507), lentiviral transduction with pLenti6-BRD9-GFP-CHYSEL-mCherry, blasticidin selection
- Sequence (Q9H8M2 1-597): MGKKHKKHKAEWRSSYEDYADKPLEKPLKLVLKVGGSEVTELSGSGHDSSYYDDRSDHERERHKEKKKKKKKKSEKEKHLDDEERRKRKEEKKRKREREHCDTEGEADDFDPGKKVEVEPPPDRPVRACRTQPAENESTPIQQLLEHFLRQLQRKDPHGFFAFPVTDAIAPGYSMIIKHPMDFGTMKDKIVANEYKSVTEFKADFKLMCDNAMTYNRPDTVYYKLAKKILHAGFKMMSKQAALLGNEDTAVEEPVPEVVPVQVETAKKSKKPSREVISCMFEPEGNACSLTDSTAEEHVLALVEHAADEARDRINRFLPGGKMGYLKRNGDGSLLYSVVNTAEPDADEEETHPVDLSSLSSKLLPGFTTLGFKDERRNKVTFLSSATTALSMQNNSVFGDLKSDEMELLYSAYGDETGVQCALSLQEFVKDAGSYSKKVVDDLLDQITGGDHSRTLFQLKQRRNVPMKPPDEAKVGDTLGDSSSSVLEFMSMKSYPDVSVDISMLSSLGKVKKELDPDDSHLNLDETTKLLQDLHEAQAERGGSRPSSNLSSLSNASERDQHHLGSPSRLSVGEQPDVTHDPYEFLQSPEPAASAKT
- experiment: BRD9-GFP protein abundance flow cytometry assay in HEK293A cells
- Type: cell-based
- test-settings: HEK293A-BRD9-GFP-CHYSEL-mCherry cells, 24 h; % protein remaining at the concentration at which maximum degradation is seen
measure: BRD9 Deg Amax % (%)

I: CCCCn1cc(-c2cc(F)c(CN3CCC(OC4CCN(C(=O)c5ccc(OC)c(N6CCC(=O)NC6=O)c5)CC4)CC3)c(OC)c2)c2ccncc2c1=O [Compound E51]
II: COc1cc(-c2cn(C)c(=O)c3cnccc23)ccc1OC1CCN(CC2CCN(C(=O)c3ccc(Cl)c(N4CCC(=O)NC4=O)c3)CC2)CC1 [Compound A10]
III: COc1ccc(C(=O)N2CCC(CN3CCC(Oc4ccc(-c5cn(C)c(=O)c6cnccc56)cc4Cl)CC3)CC2)cc1N1CCC(=O)NC1=O [Compound A17]
Order all 3 entries above by recorded BRD9 Deg Amax %, highest first, lowest last. Could you list the labels in the order requested?
III, II, I

1: CCCCn1cc(-c2cc(F)c(CN3CCC(OC4CCN(C(=O)c5ccc(OC)c(N6CCC(=O)NC6=O)c5)CC4)CC3)c(F)c2)c2ccncc2c1=O [Compound E33]
2: Cn1cc(-c2cc(F)c(CCN3CCC(OC4CCN(CCn5cccc(CN6CCC(=O)NC6=O)c5=O)CC4)CC3)c(F)c2)c2ccncc2c1=O [Compound E27]
Compare the recorded BRD9 Deg Amax % of 1 and 2 ; state which is larger. Indicate your choice by writing its label.
2
(2: 22.28%, 1: 14.29%)

###

- system-tested: BRD9-GFP (Homo sapiens)
- Construct: CHYSEL (2A cis-acting hydrolase element) remnant after GFP; mCherry is split off as a separate protein (C); expressed in transfected cells; host or cells: HEK293A cells (Invitrogen R70507), lentiviral transduction with pLenti6-BRD9-GFP-CHYSEL-mCherry, blasticidin selection
- Sequence (Q9H8M2 1-597): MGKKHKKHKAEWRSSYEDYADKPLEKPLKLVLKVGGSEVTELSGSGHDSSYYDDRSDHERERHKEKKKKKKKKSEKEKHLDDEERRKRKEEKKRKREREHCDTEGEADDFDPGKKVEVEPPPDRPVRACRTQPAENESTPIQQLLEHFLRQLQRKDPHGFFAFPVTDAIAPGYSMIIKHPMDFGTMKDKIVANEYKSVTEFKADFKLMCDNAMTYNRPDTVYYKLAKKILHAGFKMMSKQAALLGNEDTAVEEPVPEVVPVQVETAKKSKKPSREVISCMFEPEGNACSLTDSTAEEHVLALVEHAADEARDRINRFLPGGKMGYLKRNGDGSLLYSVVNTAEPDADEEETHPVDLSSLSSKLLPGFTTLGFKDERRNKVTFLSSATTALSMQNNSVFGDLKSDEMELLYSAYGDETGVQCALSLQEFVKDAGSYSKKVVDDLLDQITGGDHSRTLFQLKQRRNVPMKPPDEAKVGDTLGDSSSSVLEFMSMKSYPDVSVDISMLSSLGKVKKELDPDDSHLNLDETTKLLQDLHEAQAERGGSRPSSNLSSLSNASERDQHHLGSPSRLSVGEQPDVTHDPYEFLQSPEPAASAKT
- experiment: BRD9-GFP protein abundance flow cytometry assay in HEK293A cells
- Assay type: cell-based
- test-settings: HEK293A-BRD9-GFP-CHYSEL-mCherry cells, 24 h at 37° C., 10-point 1:3 dilution; concentration at which 50% maximal degradation was observed
measure: DC50 (nM)

Worked examples, 2 compounds total:
CCCn1cc(-c2cc(OC)c(CCN3CC[C@@H](OC4CCN(CCn5cccc(CN6CCC(=O)NC6=O)c5=O)CC4)[C@H](F)C3)c(OC)c2)c(C)c(C)c1=O: 4
COc1cc(-c2cn(C)c(=O)c3cnccc23)cc(OC)c1CCN1CCC(OC2CCN(C(=O)COc3ccc(N4CCC(=O)NC4=O)cc3)CC2)CC1: 10

a: COc1ccc(C(=O)N2CCC(CN3CCC(Oc4c(OC)cc(-c5cn(C)c(=O)c6cnccc56)cc4OC)CC3)CC2)cc1N1CCC(=O)NC1=O
b: CCCn1cc(-c2cc(OC)c(CCN3CCC(OC4CCN(C(=O)c5ccc(Cl)c(N6CCC(=O)NC6=O)c5)CC4)CC3)c(OC)c2)cc(C)c1=O
c: COc1cc(-c2cn(C)c(=O)c(C)c2C)ccc1CN1CCN(CC2CCN(C(=O)c3cccc(N4CCC(=O)NC4=O)c3)CC2)CC1
d: CCCCn1cc(-c2cc(OC)c(CCN3CCC(OC4CCN(C(=O)c5ccc(OC)c(N6CCC(=O)NC6=O)c5)CC4)CC3)c(OC)c2)c2ccncc2c1=O
Give the ascending ranking of the items by reported DC50. Could you list the labels in the order requested?
b, a, d, c
